system: XIP peptide (Xip251-270) binding; assay: small-molecule binders of XIP peptide, primary screen, biochemical, small-molecule microarray, fluorescence 635/667 nm, 0.1 µg/mL protein (AID 1182); details: fluorescent protein binding, 635 nm, higher = more signal, called active from +8 up or from −8 down
Given measured composite z-score, output YES if it is greater than or equal to 0.2 and NO if not.

INSERT INTO assay_data (compound, system_under_test, assigned_category) VALUES
  ('C=CC[C@@]1(C(=O)NCC(O)CO)N=C(c2ccc(OCCCO)cc2)O[C@@H]1c1ccccc1CN=[N+]=[N-] (stereo not given in full)', 'XIP peptide (Xip251-270) binding', 'YES'),
  ('C=C(COC)/C(=C/C[C@H](OC(C)=O)c1ccc(OCCO)cc1)c1cnc2ccccc2c1', 'XIP peptide (Xip251-270) binding', 'YES'),
  ('CO[C@H]1COC(=O)[C@H](C)NC(=O)CC=C[C@@H](C)[C@H](NS(=O)(=O)c2ccc(C)cc2)COC(=O)[C@@H](OCc2ccccc2)C=C[C@@H]1C', 'XIP peptide (Xip251-270) binding', 'NO'),
  ('O=C1O[C@H](c2ccccc2)[C@H](c2ccccc2)N2[C@H]1[C@@H](C(=O)NC[C@H](O)c1ccccc1)[C@]1(C(=O)Nc3ccc(C#CC4=CCCCC4)cc31)[C@H]2c1ccc(OCCO)cc1', 'XIP peptide (Xip251-270) binding', 'YES'),
  ('COc1ccc(-c2cc3c(c(-c4ccccc4)n2)[Si](C(C)C)(C(C)C)O[C@H]3c2ccccc2)cn1', 'XIP peptide (Xip251-270) binding', 'YES'),
  ('C=CCNC(=O)[C@H]1[C@@H]2C(=O)O[C@@H](c3ccccc3)[C@@H](c3ccccc3)N2[C@@H](c2ccccc2OCCO)[C@]12C(=O)N(C(=O)OCCOC)c1ccc(C#CCNC(N)=O)cc12', 'XIP peptide (Xip251-270) binding', 'YES'),
  ('C=C[C@H](OC)[C@@H](OC(=O)Nc1ccc(SC)cc1)c1ccc(OC)c(O)c1', 'XIP peptide (Xip251-270) binding', 'YES'),
  ('O=C1C2C=CC(C(O)c3ccccc3)N(n3cnnc3)C2C(=O)N1Cc1ccccc1 (stereo not given)', 'XIP peptide (Xip251-270) binding', 'NO'),
  ('O=C1c2ccccc2[C@](Cc2ccccc2I)(C(=O)NCC(F)(F)F)[C@H](c2ccc(CO)cc2)N1Cc1ccccc1C(F)(F)F', 'XIP peptide (Xip251-270) binding', 'YES'),
  ('CC(=O)NCCCC[C@@H]1NC(=O)[C@@H]2C[C@H](C(=O)NCc3ccc(F)cc3)[C@H](c3cccc(OCCO)c3)N2C1=O', 'XIP peptide (Xip251-270) binding', 'YES'),
  ('CO[C@H]1COC(=O)CC=C[C@H](C)COC(=O)[C@@H](OCc2ccccc2)C=C[C@@H]1C', 'XIP peptide (Xip251-270) binding', 'YES'),
  ('COc1ccc(NN2C(C(O)c3cc(OC)c(OC)c(OC)c3)C=CC3C(=O)N(C4CCCCC4)C(=O)C32)cc1 (stereo not given)', 'XIP peptide (Xip251-270) binding', 'NO'),
  ('CC(C)[Si]1(C(C)C)O[C@@H](c2ccccc2)c2cc(C3CC3)nc(-c3ccc(Oc4ccccc4)cc3)c21', 'XIP peptide (Xip251-270) binding', 'NO'),
  ('NC(=O)[C@H]1[C@@H]2C(=O)O[C@@H](c3ccccc3)[C@@H](c3ccccc3)N2[C@@H](c2ccc(O)cc2)[C@]12C(=O)Nc1ccc(C#CCCO)cc12', 'XIP peptide (Xip251-270) binding', 'NO'),
  ('CN(C)c1ccc(C(O)C2C=CC3C(=O)NC(=O)C3N2Nc2ccc(Cl)cc2Cl)cc1 (stereo not given)', 'XIP peptide (Xip251-270) binding', 'NO');

* * *

experiment: small-molecule microarray binders of probe aEGFR, primary screen, biochemical, biotinylated probe, 635/667 nm fluorescence (AID 1097); conditions: higher = more signal;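 note: probe is a biotinylated anti-EGFR antibody binding compounds printed on slides; score combines fluorescence near 667 nm and signal to noise of each spot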
Measured composite z-score, listed per entry.
property measured: composite z-score

INSERT INTO measurements (molecule, quantitative_result) VALUES
  ('CC(C)(C)OC(=O)CC[C@@]1(C(=O)NCc2ccccc2)N=C(c2ccc(OCCCO)cc2)O[C@@H]1c1ccccc1', 0.045),
  ('CCOC(=O)C[C@H]1[C@H](OC(=O)Cc2ccc3c(c2)OCO3)[C@@H](NC(=O)CC(C)C)c2cc(OCCCO)ccc2N1C(=O)c1ccccc1', 0.0253),
  ('O=C1O[C@@H](c2ccccc2)[C@@H](c2ccccc2)N2[C@@H](c3ccc(O)cc3)[C@]3(C(=O)Nc4ccc(C#CC5(O)CCCCCC5)cc43)[C@@H](C(=O)Nc3nc4ccccc4s3)[C@H]12', 0.267),
  ('CC(C)[Si](OCCCNS(=O)(=O)c1ccc(Br)cc1)(C(C)C)C(C)C', 0.0298),
  ('CCN1C(C)=C(C(=O)OC)[C@@H](c2ccccc2)N2C(=O)[C@@]3(C(=O)OC)O[C@@]12[C@@H]1C(=O)CCC[C@@H]13', 0.0173),
  ('Cc1ccc(S[C@]2(C(=O)NC3CC3)CC(=O)N(Cc3cc(C(F)(F)F)cc(C(F)(F)F)c3)[C@@H]2c2ccc(CO)cc2)cc1', -0.0772),
  ('COCCOC(=O)N1C(=O)[C@@]2(c3cc(C#CC4=CCCCC4)ccc31)[C@H](c1ccc(O)cc1)N1[C@H](c3ccccc3)[C@H](c3ccccc3)OC(=O)[C@H]1[C@@H]2C(=O)N1CCCCCCC1', 0.0143),
  ('Cc1ccccc1C(O)C1C=CC2C(=O)N(c3ccccc3)C(=O)C2N1Nc1ccc(C#N)cc1 (configuration not stated)', 0.413),
  ('NC(=O)NCC#Cc1ccc2c(c1)[C@]1(C(=O)N2)[C@H](C(N)=O)[C@H]2C(=O)O[C@H](c3ccccc3)[C@H](c3ccccc3)N2[C@@H]1c1ccccc1OCCO', -0.151),
  ('CC(C)(C)OC(=O)CC[C@]1(C(=O)NCCN2CCOCC2)N=C(c2ccc(OCCCO)cc2)O[C@H]1c1ccccc1CN=[N+]=[N-]', 0.0074),
  ('CCCC=C(CCC)[C@@H](NC(=O)c1ccc(C(F)(F)F)cc1)c1ccccc1', -0.0565),
  ('[N-]=[N+]=NCc1ccccc1C[C@]1(C(=O)N2CCCCC2)N=C(c2ccc(OCCCO)cc2)O[C@H]1c1ccccc1CN=[N+]=[N-]', -0.0703),
  ('CC(C)[Si](OCC[C@H]1O[C@]2(C(=O)N(Cc3ccccc3)c3ccccc32)[C@@H](C)[C@@H]1[Si](C)(C)O)(C(C)C)C(C)C', -0.109),
  ('COC(=O)C1=CC(c2ccc(CO)cc2)=CC(C2CC2)N(Cc2sc3ccccc3c2Cl)C=C1C(=O)OC (configuration not stated)', 0.157),
  ('C=C(COC)/C(=C/C[C@@H](OC(C)=O)c1cccc(OCCO)c1)c1cc(C(=O)OC)ccc1OC', -0.15),
  ('CO[C@H]1COC(=O)[C@@H](Cc2ccccc2)NC(=O)[C@@H](C)COC(=O)CC=C[C@@H]1C', -0.096),
  ('Cc1cc(C)c(C(O)C2C=CC3C(=O)N(C)C(=O)C3N2N2CCCCC2)c(C)c1 (configuration not stated)', 0.301),
  ('CCCC[C@H]1OB(O)C[C@H]2C1=C(COC)C[C@H]1C(=O)N(Cc3ccccc3)C(=O)[C@H]12', -0.0958),
  ('CCOC(=O)C[C@H]1[C@H](OC(=O)c2cc3ccccc3oc2=O)[C@@H](NC(=O)C2CCCCC2)c2cc(OCCCO)ccc2N1C(=O)c1ccc2ccccc2n1', -0.154),
  ('CCCCO[C@H]1C[C@H]2C(Br)=C[C@@]1(CO)C(=O)[C@]21CO1', -0.109),
  ('CO[C@H]1O[C@H](CO)[C@@H](OC(=O)CCc2ccccc2)[C@@H]2OC(=O)[C@H](Cc3cccc(Br)c3)C/C=C/C[C@@H](Cc3cccc(Br)c3)C(=O)O[C@@H]12', -0.186),
  ('COc1ccc([Si](C)(C)[C@H]2[C@H](CCO)O[C@@]3(C(=O)N(Cc4ccccc4)c4ccc(N5C(=O)c6cccc7cccc5c67)cc43)[C@@H]2C)cc1', -0.218),
  ('COCCOC(=O)N1C(=O)[C@@]2(c3cc(C#CC4(O)CCCCCC4)ccc31)[C@H](C(=O)N1CCCCCCC1)[C@H]1C(=O)O[C@H](c3ccccc3)[C@H](c3ccccc3)N1[C@@H]2c1ccc(O)cc1', 0.67),
  ('C=CC[C@]1(C(=O)NCC(O)CO)N=C(c2ccc(OCCCO)cc2)O[C@H]1c1ccccc1 (some centres not stated)', -0.169),
  ('COc1ccc([Si](C)(C)[C@@H]2[C@@H](CC(=O)N(CCO)Cc3ccccc3)O[C@]3(C(=O)N(Cc4cccc(N5CCC5=O)c4)c4ccccc43)[C@H]2C)cc1', -0.135),
  ('CCCNC(=O)[C@@H]1c2ccccc2C(=O)N(C2CCCCC2)[C@H]1c1ccc(CO)cc1', 0.0634),
  ('COCCOC(=O)N1C(=O)[C@@]2(c3ccccc31)[C@H](C(=O)N1CCc3cc(OC)c(OC)cc3C1)[C@H]1C(=O)O[C@H](c3ccccc3)[C@H](c3ccccc3)N1[C@@H]2c1ccccc1OCCO', -0.0717);

The origin of these recorded values is PubChem BioAssay.
